Provenance of the data: paper PMC5859730

# RUN_DESCRIPTION: Differential pulse voltammetry, quinone reduction potentials
# Assay type: physicochemical
# COND: second reduction, quinone dianion (NQ2–); DMSO, 0.1 M [N(nBu)4][PF6], 0.1 mM analyte, vs. SCE
READOUT: E 1/2 b (V) DPV

# COMPOUND, VALUE
records = [
    ("Cc1cc(C)c(-n2c3c([n+](-c4c(C)cc(C)cc4C)[c]2[Au-][Cl])C(=O)c2ccccc2C3=O)c(C)c1 [Complex 3]", "–1.31 V"),
    ("Cc1cc(C)c(-n2c3c(n(-c4c(C)cc(C)cc4C)[c]2=[Au]([Cl])=[c]2n(-c4c(C)cc(C)cc4C)c4c(n2-c2c(C)cc(C)cc2C)C(=O)c2ccccc2C4=O)C(=O)c2ccccc2C3=O)c(C)c1 [Complex 2]", "–1.31 V"),
    ("Cc1cc(C)c(-n2c3c(n(-c4c(C)cc(C)cc4C)[c]2=[Au-]=[c]2n(-c4c(C)cc(C)cc4C)c4c(n2-c2c(C)cc(C)cc2C)C(=O)c2ccccc2C4=O)C(=O)c2ccccc2C3=O)c(C)c1.[Cl][Ag-][Cl] [Complex 1]", "–1.31 V"),
]
